target: human recombinant D2 receptor (Homo sapiens); construct: expressed in transfected cells; host or cells: HEK293; test: D2 antagonistic activity test (LANCE cAMP, antagonism of dopamine inhibition of cAMP production in HEK293 cells); assay type: cell-based; conditions: HEK293 cells expressing human recombinant D2 receptor; test concentration 0.1 nM to 10000 nM; read-out: D2 Antagonistic Activity (IC50, nmol/L)
Sequence (P14416 whole entry): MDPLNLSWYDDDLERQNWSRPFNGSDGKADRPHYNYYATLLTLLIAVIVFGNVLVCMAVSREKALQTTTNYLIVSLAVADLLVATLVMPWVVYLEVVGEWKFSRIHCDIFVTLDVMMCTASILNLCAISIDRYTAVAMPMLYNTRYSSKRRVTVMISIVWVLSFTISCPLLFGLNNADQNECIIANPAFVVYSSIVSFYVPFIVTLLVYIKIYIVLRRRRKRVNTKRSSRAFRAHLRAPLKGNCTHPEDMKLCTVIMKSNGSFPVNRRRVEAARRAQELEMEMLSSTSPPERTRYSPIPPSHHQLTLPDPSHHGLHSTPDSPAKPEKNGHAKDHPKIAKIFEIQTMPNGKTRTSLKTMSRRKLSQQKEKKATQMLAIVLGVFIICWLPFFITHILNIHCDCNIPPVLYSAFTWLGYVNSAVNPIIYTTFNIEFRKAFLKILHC
Structures can show the parent of a compound that is named as a salt.
Threshold 1000 nmol/L: IC50 strictly smaller gives fulfilled, otherwise not fulfilled.

INSERT INTO measurements (molecule, classification) VALUES
  ('COc1ccc2c(c1OC)CN1CCc3cc4c(cc3C1C2)C(=O)NC4=O (centres unmarked) [Example 36]', 'fulfilled'),
  ('COc1ccc2c(c1OC)CN1CCc3cc4c(cc3C1C2)OCC(=O)N4 (centres unmarked) [Example 47]', 'fulfilled'),
  ('COc1cc2c(cc1OC)[C@@H]1Cc3ccc(C=O)c(OC)c3CN1CC2 [Example 29]', 'not fulfilled'),
  ('COc1cc2c(cc1N)[C@@H]1Cc3ccc(OC)c(OC)c3CN1CC2 [Example 13, hydrochloride]', 'fulfilled');

Origin of the recorded values: patent US11731965B2
